The reported numbers originate from ChEMBL document CHEMBL1133658.

Kindly state pIC50 for each of the entries shown.
Please express pIC50 as -log10 of the molar concentration.

Asked: Kindly state the measured pIC50 obtained for Oc1cc(-c2ccc3ccccc3c2)nc2ncc(Cl)cc12 with Tubulin alpha chain (Sus scrofa, UniProt P02550).
Sequence (P02550 whole entry, looked up): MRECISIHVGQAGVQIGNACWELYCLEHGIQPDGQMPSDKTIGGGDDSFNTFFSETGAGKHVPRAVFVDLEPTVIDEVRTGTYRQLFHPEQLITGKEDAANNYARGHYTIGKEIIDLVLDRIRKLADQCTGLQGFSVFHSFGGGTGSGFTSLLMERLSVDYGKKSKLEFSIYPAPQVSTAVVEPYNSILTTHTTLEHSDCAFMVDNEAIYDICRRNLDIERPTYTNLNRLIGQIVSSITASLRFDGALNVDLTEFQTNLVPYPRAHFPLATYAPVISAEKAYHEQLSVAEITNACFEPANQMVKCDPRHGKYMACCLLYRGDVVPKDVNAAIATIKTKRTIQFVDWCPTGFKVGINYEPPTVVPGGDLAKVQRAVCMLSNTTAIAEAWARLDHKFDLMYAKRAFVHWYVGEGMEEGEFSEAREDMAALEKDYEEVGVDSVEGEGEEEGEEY
Given back: 5.60

Asked: Please state recorded pIC50 (tested on Tubulin alpha chain (Sus scrofa, UniProt P02550)) of COc1c(O)cc2c(c1OC)-c1ccc(SC)c(=O)cc1[C@@H](NC(C)=O)CC2C=O (stereo partly drawn)
Given back: 5.55

Asked: Kindly state the measured pIC50 obtained for COc1ccc2c(c1)C(NC(C)=O)CCc1cc(OC)c(OC)c(OC)c1-2 (stereo not drawn) with Tubulin alpha chain (Sus scrofa, UniProt P02550).
Given back: 5.82
